Listed here are compounds together with their documented MIC.
Test system: Escherichia coli
Experiment: Minimum inhibitory concentration against Escherichia coli
Format: functional
Numeric answer plus unit only.

CC[C@H]1OC(=O)[C@H](C)[C@H]2OC3(CCN(C(=O)c4cnc5ccccc5c4)CC3)O[C@](C)(C[C@@H](C)CN[C@H](C)[C@@H](O)[C@]1(C)O)[C@H](O[C@@H]1O[C@H](C)C[C@H](N(C)C)[C@H]1O)[C@H]2C = 3.13 µg/mL
CC[C@H]1OC(=O)[C@H](C)[C@H]2OC3(CCN(Cc4ccc(-c5ccccc5)cc4)CC3)O[C@](C)(C[C@@H](C)CN(C)[C@H](C)[C@@H](O)[C@]1(C)O)[C@H](O[C@@H]1O[C@H](C)C[C@H](N(C)C)[C@H]1O)[C@H]2C = 1.56 µg/mL
CC[C@H]1OC(=O)[C@H](C)[C@H]2OC3(CCN(C(=O)c4ccnc5ccccc45)CC3)O[C@](C)(C[C@@H](C)CN(C)[C@H](C)[C@@H](O)[C@]1(C)O)[C@H](O[C@@H]1O[C@H](C)C[C@H](N(C)C)[C@H]1O)[C@H]2C = 6.25 µg/mL

Moving on to another compound below.
Short answer for `CC[C@H]1OC(=O)[C@H](C)[C@H]2OC3(CCN(C(=O)c4c[nH]c5ccccc45)CC3)O[C@](C)(C[C@@H](C)CN[C@H](C)[C@@H](O)[C@]1(C)O)[C@H](O[C@@H]1O[C@H](C)C[C@H](N(C)C)[C@H]1O)[C@H]2C` : MIC was 6.25 µg/mL

###

Listed here are compounds together with their documented ED50.
System: Staphylococcus aureus
Assay: Effective dose required to inhibit Staphylococcus aureus intraperitoneal (IP) infection model
Format: functional

CC[C@H]1OC(=O)[C@H](C)[C@H]2OC3(CCN(CCc4ccc(Cl)cc4)CC3)O[C@](C)(C[C@@H](C)CN(C)[C@H](C)[C@@H](O)[C@]1(C)O)[C@H](O[C@@H]1O[C@H](C)C[C@H](N(C)C)[C@H]1O)[C@H]2C = > 20 mg/kg
CC[C@H]1OC(=O)[C@H](C)[C@H]2OC3(CCN(C(=O)c4ccc5ccccc5n4)CC3)O[C@](C)(C[C@@H](C)CN(C)[C@H](C)[C@@H](O)[C@]1(C)O)[C@H](O[C@@H]1O[C@H](C)C[C@H](N(C)C)[C@H]1O)[C@H]2C = > 20 mg/kg

Short answer for `CC[C@H]1OC(=O)[C@H](C)[C@H]2OC3(CCN(Cc4cccnc4)CC3)O[C@](C)(C[C@@H](C)CN(C)[C@H](C)[C@@H](O)[C@]1(C)O)[C@H](O[C@@H]1O[C@H](C)C[C@H](N(C)C)[C@H]1O)[C@H]2C` : ED50 was > 20 mg/kg

###

Tested on: Pasteurella multocida
Test: Minimum inhibitory concentration against Pasteurella multocida
Type: functional
experimental endpoint: MIC
Numeric answer plus unit only.

These recorded examples may help you get a feel for the data.
CC[C@H]1OC(=O)[C@H](C)[C@H]2OC3(CCN(CCc4ccoc4)CC3)O[C@](C)(C[C@@H](C)CN(C)[C@H](C)[C@@H](O)[C@]1(C)O)[C@H](O[C@@H]1O[C@H](C)C[C@H](N(C)C)[C@H]1O)[C@H]2C = 0.03 µg/mL
CC[C@H]1OC(=O)[C@H](C)[C@H]2OC3(CCN(C(=O)c4occc4C)CC3)O[C@](C)(C[C@@H](C)CN[C@H](C)[C@@H](O)[C@]1(C)O)[C@H](O[C@@H]1O[C@H](C)C[C@H](N(C)C)[C@H]1O)[C@H]2C = 0.1 µg/mL
CC[C@H]1OC(=O)[C@H](C)[C@H]2OC3(CCN(CCc4ccccc4)CC3)O[C@](C)(C[C@@H](C)CN[C@H](C)[C@@H](O)[C@]1(C)O)[C@H](O[C@@H]1O[C@H](C)C[C@H](N(C)C)[C@H]1O)[C@H]2C = 0.03 µg/mL
CC[C@H]1OC(=O)[C@H](C)[C@H]2OC3(CCN(C(=O)c4cnccn4)CC3)O[C@](C)(C[C@@H](C)CN[C@H](C)[C@@H](O)[C@]1(C)O)[C@H](O[C@@H]1O[C@H](C)C[C@H](N(C)C)[C@H]1O)[C@H]2C = 0.1 µg/mL
CC[C@H]1OC(=O)[C@H](C)[C@H]2OC3(CCN(CCc4ccc(Cl)cc4)CC3)O[C@](C)(C[C@@H](C)CN(C)[C@H](C)[C@@H](O)[C@]1(C)O)[C@H](O[C@@H]1O[C@H](C)C[C@H](N(C)C)[C@H]1O)[C@H]2C = 0.03 µg/mL
CC[C@H]1OC(=O)[C@H](C)[C@H]2OC3(CCN(C(=O)c4ccco4)CC3)O[C@](C)(C[C@@H](C)CN(C)[C@H](C)[C@@H](O)[C@]1(C)O)[C@H](O[C@@H]1O[C@H](C)C[C@H](N(C)C)[C@H]1O)[C@H]2C = 0.05 µg/mL
CC[C@H]1OC(=O)[C@H](C)[C@H]2OC3(CCN(Cc4ccccn4)CC3)O[C@](C)(C[C@@H](C)CN[C@H](C)[C@@H](O)[C@]1(C)O)[C@H](O[C@@H]1O[C@H](C)C[C@H](N(C)C)[C@H]1O)[C@H]2C = 0.03 µg/mL

Moving on to another compound below.
Short answer for `CC[C@H]1OC(=O)[C@H](C)[C@H]2OC3(CCN(CCc4ccc5ccccc5n4)CC3)O[C@](C)(C[C@@H](C)CN[C@H](C)[C@@H](O)[C@]1(C)O)[C@H](O[C@@H]1O[C@H](C)C[C@H](N(C)C)[C@H]1O)[C@H]2C` : MIC was 0.03 µg/mL

###

System: Pasteurella multocida
Assay: Minimum inhibitory concentration against Pasteurella multocida
Assay type: functional
experimental endpoint: MIC (µg/mL)
Kindly answer with a numeric value in µg/mL, unit omitted.

These recorded examples may help you get a feel for the data.
CC[C@H]1OC(=O)[C@H](C)[C@H]2OC3(CCN(Cc4ccncc4)CC3)O[C@](C)(C[C@@H](C)CN[C@H](C)[C@@H](O)[C@]1(C)O)[C@H](O[C@@H]1O[C@H](C)C[C@H](N(C)C)[C@H]1O)[C@H]2C = 0.03
CC[C@H]1OC(=O)[C@H](C)[C@H]2OC3(CCN(CCc4ccccc4OC)CC3)O[C@](C)(C[C@@H](C)CN(C)[C@H](C)[C@@H](O)[C@]1(C)O)[C@H](O[C@@H]1O[C@H](C)C[C@H](N(C)C)[C@H]1O)[C@H]2C = 0.03
CC[C@H]1OC(=O)[C@H](C)[C@H]2OC3(CCN(CCc4ccc(OC)cc4)CC3)O[C@](C)(C[C@@H](C)CN[C@H](C)[C@@H](O)[C@]1(C)O)[C@H](O[C@@H]1O[C@H](C)C[C@H](N(C)C)[C@H]1O)[C@H]2C = 0.01
CC[C@H]1OC(=O)[C@H](C)[C@H]2OC3(CCN(C(=O)c4ccccn4)CC3)O[C@](C)(C[C@@H](C)CN[C@H](C)[C@@H](O)[C@]1(C)O)[C@H](O[C@@H]1O[C@H](C)C[C@H](N(C)C)[C@H]1O)[C@H]2C = 0.1

Short answer for `CC[C@H]1OC(=O)[C@H](C)[C@H]2OC3(CCN(C(=O)c4cccn4C)CC3)O[C@](C)(C[C@@H](C)CN[C@H](C)[C@@H](O)[C@]1(C)O)[C@H](O[C@@H]1O[C@H](C)C[C@H](N(C)C)[C@H]1O)[C@H]2C` : MIC was 0.1
